Where do these numbers come from? They come from patent US20250074980A1.

# Measurement Target: T1, CEACAM3 on transfected HeLa cells (human, UniProt P40198 35-252)
# T1 construct: whole, on cells; also called HeLa-CEACAM3; HeLa C3
# T1 sequence (looked up): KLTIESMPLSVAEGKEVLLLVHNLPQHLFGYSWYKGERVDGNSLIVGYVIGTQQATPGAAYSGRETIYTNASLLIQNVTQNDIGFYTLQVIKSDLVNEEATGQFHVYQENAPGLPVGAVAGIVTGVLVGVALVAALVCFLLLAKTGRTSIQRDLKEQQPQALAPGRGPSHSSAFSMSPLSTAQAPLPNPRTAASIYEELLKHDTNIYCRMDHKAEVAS
# Method Summary: flow cytometry, transfected HeLa
Assay Endpoint: binding result

>  <Binder>
VH3/Vκ2 (antibody, IgG4, V domains shown, IgG4 (S241P), kappa) VH: EVQLLESGGGLVQPGGSLRLSCAASGFIFSSHGMSWVRQAPGKGLEWVATISSGGTYTYYADSVKGRFTISRDNSKNTLYLQMNSLRAEDTAMYYCARHDFDYDAAWFAYWGQGTLVTVSS VL: EIVLTQSPATLSLSPGERATLSCRANSSVSYMYWYQQKPGQAPRPWIYLTSNRATGVPARFSGSGSGTDYTLTISSLEPEDFATYYCQQWSSNPPTFGQGTKLEIK

>  <Observed Value>
no binding

$$$$
>  <Binder>
VH1/Vκ11 (antibody, IgG4, V domains shown, IgG4 (S241P), kappa) VH: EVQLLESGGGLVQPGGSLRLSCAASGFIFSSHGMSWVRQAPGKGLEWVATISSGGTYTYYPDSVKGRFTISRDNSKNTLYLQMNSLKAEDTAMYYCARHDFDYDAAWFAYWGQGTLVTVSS VL: EIVLTQSPATLSLSPGERATLSCRANSSVSYMYWYQQKPGQAPRPWIYLTSNRATGIPARFSGSGSGTDYTLTISSLEPEDFAVYYCQQWSSNPPTFGQGTKLEIK

>  <Observed Value>
no binding

$$$$
>  <Binder>
VH1/Vκ10 (antibody, IgG4, V domains shown, IgG4 (S241P), kappa) VH: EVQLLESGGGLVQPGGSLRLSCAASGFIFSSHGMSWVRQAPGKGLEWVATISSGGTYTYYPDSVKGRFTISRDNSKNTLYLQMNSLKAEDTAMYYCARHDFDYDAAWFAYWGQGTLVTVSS VL: EIVLTQSPATLSLSPGERATLSCRANSSVSYMYWYQQKPGQAPRPWIYLTSNRATGIPARFSGSGSGTDFTLTISSLEPEDFATYYCQQWSSNPPTFGQGTKLEIK

>  <Observed Value>
no binding

$$$$
>  <Binder>
VH1/Vκ2 (antibody, IgG4, V domains shown, IgG4 (S241P), kappa) VH: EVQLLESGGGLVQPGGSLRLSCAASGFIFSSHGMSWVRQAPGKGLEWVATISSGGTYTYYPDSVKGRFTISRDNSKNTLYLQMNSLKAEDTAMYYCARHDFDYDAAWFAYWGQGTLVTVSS VL: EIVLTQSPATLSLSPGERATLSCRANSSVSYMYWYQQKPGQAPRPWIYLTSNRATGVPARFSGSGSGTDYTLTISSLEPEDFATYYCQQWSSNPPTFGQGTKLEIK

>  <Observed Value>
no binding

$$$$
>  <Binder>
VH4/Vκ4 (antibody, IgG4, V domains shown, IgG4 (S241P), kappa) VH: EVQLLESGGGLVQPGGSLRLSCAASGFIFSSHGMSWVRQAPGKGLEWVSTISSGGTYTYYADSVKGRFTISRDNSKNTLYLQMNSLRAEDTAVYYCARHDFDYDAAWFAYWGQGTLVTVSS VL: EIVLTQSPATLSLSPGERATLSCRANSSVSYMYWYQQKPGQAPRPWIYLTSNRATGIPARFSGSGSGTDYTLTISSLEPEDFATYYCQQWSSNPPTFGQGTKLEIK

>  <Observed Value>
no binding

$$$$
